Tested on: Plasmodium falciparum
protocol.summary: Primary screen in NF54 nanoGlo assay, in single point, at 2uM, 72h; a lower Z score goes with more inhibition
Type: functional, Erythrocyte
test.context: timepoint 72 hour
Screen size: about 150,000 compounds; about 540 (0.36%) showed an effect of 50% or more. The entries come from a sample that favours strong results as a whole.
Tag: 1.0 if measured Z score is not below -0.8, 0.0 if it is.

>  <compound>
O[C@@H](CNCCCn1ccnc1)COc1ccc(Cl)cc1Cl

>  <answer.label>
0.0

$$$$
>  <compound>
COC(C)[C@H](C)NCC(C)c1ccccc1 (some centres not stated)

>  <answer.label>
1.0

$$$$
>  <compound>
COc1ccnc(CN2CCC[C@H](C(=O)c3cc(C)c(OC)c(C)c3)C2)c1OC

>  <answer.label>
0.0

$$$$
>  <compound>
COc1cc(NC(=O)Cc2ccc(OC)c(OC)c2)ncn1

>  <answer.label>
0.0

$$$$
>  <compound>
COc1ccc(Cc2n[nH]c3c2CN(Cc2nccs2)CC3)cc1OC

>  <answer.label>
0.0

$$$$
>  <compound>
CC(C)C(=O)N1CCc2ccc(OCc3nc(C(=O)N(C)Cc4ccccc4)cs3)cc2[C@@H]1c1ccccc1

>  <answer.label>
1.0

$$$$
>  <compound>
CCOc1ccc2c(n1)CCN(C(=O)c1ccsc1)C2

>  <answer.label>
1.0

$$$$
>  <compound>
Cc1nsc2ncc(C(=O)N3CCC(C)CC3)c(N3CCC(C(=O)Nc4cc(F)ccc4F)CC3)c12

>  <answer.label>
0.0

$$$$
>  <compound>
CCN(CC)C(=O)c1cnc2snc(C)c2c1N1CCC(C(=O)Nc2c(C)cc(C)cc2C)CC1

>  <answer.label>
0.0

$$$$
>  <compound>
O=C(Nc1ccc(-n2cnnn2)cc1)c1coc(-c2ccccc2)n1

>  <answer.label>
1.0

$$$$
>  <compound>
Cc1c(NC[C@H](C)c2ccccc2)cnn1C

>  <answer.label>
1.0

$$$$
>  <compound>
Cc1ncsc1CN(C)[C@@H](C(=O)O)c1ccsc1

>  <answer.label>
1.0

$$$$
>  <compound>
Cc1cccc2c1OCC[C@H]2NC(=O)Cn1cnc2c1CCNC21CCOCC1

>  <answer.label>
1.0

$$$$
>  <compound>
C[C@@H](NCCCn1ccnc1)c1ccc(Cl)cc1

>  <answer.label>
1.0

$$$$
>  <compound>
CNc1ncc(C(=O)N2CCC[C@H](C(=O)c3cc(C)c(OC)c(C)c3)C2)cn1

>  <answer.label>
1.0

$$$$
>  <compound>
COc1c(C)cc(C(=O)[C@H]2CCCN(c3cc(N)ncn3)C2)cc1C

>  <answer.label>
0.0

$$$$
>  <compound>
COc1cc2cc(NC(C)=N)nc(C)c2cc1OC

>  <answer.label>
0.0

$$$$
>  <compound>
COCCNC(=O)c1coc(CN2C(=O)COc3ccc(C(=O)COc4ccccc4)cc32)n1

>  <answer.label>
1.0

$$$$
>  <compound>
CCCCN1C(=O)[C@](NS(=O)(=O)c2ccc(NC(C)=O)cc2)(C(F)(F)F)C(C(C)=O)=C1C

>  <answer.label>
1.0

$$$$
>  <compound>
O=c1[nH]nc(Cn2ccnc2)n1Cc1ccc(Cl)cc1Cl

>  <answer.label>
1.0

$$$$
>  <compound>
COc1ccc(CC(=N)Nc2cc3cc(OC)c(OC)cc3c(Cc3ccc(OC)c(OC)c3)n2)cc1OC

>  <answer.label>
0.0

$$$$
>  <compound>
Cc1ccc(-c2cc(C(=O)N(Cc3cccs3)[C@H]3CCS(=O)(=O)C3)no2)cc1F

>  <answer.label>
1.0

$$$$
